# study system: Receptor-type tyrosine-protein kinase FLT3 (Homo sapiens, UniProt P36888)
# Sequence (P36888 whole entry): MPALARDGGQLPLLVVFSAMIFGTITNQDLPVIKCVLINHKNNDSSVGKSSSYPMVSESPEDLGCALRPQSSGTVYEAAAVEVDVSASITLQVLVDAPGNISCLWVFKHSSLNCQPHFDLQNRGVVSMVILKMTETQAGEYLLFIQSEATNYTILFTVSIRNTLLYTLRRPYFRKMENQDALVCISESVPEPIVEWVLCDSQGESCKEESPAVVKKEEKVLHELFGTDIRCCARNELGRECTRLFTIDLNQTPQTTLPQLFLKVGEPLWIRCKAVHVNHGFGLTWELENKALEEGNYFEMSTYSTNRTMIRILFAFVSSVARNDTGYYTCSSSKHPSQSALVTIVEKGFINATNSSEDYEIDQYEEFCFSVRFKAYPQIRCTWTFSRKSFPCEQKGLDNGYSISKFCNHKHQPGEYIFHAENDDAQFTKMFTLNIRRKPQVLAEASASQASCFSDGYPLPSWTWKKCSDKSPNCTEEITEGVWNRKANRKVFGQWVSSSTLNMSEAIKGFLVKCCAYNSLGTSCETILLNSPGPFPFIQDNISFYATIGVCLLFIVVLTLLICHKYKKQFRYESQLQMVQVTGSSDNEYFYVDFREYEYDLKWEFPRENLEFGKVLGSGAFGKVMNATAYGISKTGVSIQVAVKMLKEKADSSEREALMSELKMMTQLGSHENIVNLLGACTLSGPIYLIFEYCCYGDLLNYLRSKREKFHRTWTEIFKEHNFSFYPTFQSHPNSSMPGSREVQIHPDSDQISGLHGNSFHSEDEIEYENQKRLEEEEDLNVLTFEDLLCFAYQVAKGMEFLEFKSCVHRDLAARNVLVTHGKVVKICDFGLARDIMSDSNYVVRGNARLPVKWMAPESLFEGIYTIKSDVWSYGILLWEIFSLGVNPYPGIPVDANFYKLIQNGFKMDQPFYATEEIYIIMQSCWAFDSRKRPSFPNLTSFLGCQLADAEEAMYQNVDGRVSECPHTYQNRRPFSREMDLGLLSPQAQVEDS
recorded metric: IC50 (nM)

# smi, scale unit, reported result
measured = [
    ("O=C(Nc1ccc(-c2cc(NC(=O)c3ccc(OCCN4CCCC4)cc3)[nH]n2)cc1)Oc1ccccc1", "nM", 40),
    ("Cc1nc(Nc2cc(-c3ccc(CNC(=O)OCc4cccnc4)cc3)n[nH]2)cc(N2CCN(CCO)CC2)n1", "nM", 21),
    ("Cc1cc(COC(=O)NCc2ccc(-c3cc(NC(=O)c4ccc(OCCN5CCCC5)cc4)[nH]n3)cc2)no1", "nM", 43),
    ("CN1CCN(c2ccc(C(=O)Nc3cc(-c4ccc(NC(=O)OCc5ccccc5)cc4)n[nH]3)cc2)CC1", "nM", 7),
    ("Cc1nc(Nc2cc(-c3ccc(CNC(=O)OCc4ccccc4)cc3)n[nH]2)cc(N2CCNCC2)n1", "nM", 17),
    ("Cc1cc(COC(=O)NCc2ccc(-c3cc(NC(=O)c4ccc(N5CCN(C)CC5)cc4)[nH]n3)cc2)no1", "nM", 27),
    ("O=C(NCc1ccc(-c2cc(NC(=O)c3ccc(OCCN4CCCC4)cc3)[nH]n2)cc1)OCc1ccccc1", "nM", 10),
]

The reported numbers originate from ChEMBL document CHEMBL2062390.
